Test: Tmax in male cynomolgus monkey at 75 mg/kg, po BID measured on day 8
Assay type: ADME, organism-based, Macaca fascicularis
Conditions: in vivo
Parameter measured: Tmax (h)
Expressed in h, but write only the number.

>>> df
                             smiles  result_number
0  Cn1cc(C[C@@H](N)C(=O)O)c2ccccc21              1

In the following, a different molecule is considered.
Exercise: Given the molecule CCOC(=O)[C@@H](Cc1cn(C)c2ccccc12)NC(=O)[C@@H](N)CC(C)C.Cl , what is its reported Tmax?
Key: 1

----------
Test: Cmax in male rat at 150 mg/kg, po BID measured on day 28
Format: ADME, organism-based
Parameters: route oral, dose 150 mg/kg
Conditions: in vivo
Parameter measured: Cmax

Exercise: Given the compound CCOC(=O)[C@@H](Cc1cn(C)c2ccccc12)NC(=O)[C@@H](N)CC(C)C.Cl , what is its reported Cmax?
Key: 169 µM

----------
Test: Stability in human plasma assessed as parent compound remaining measured after 6 hrs by LC-MS/MS analysis
Type: ADME, cell-free
Conditions: read-out: Stabilty
Criterion: remaining at 6 h strictly under 80%. Met: 1. Not met: 0.

In [3]: df
Out[3]:
                                   molecule  assigned_category
0  CCOC(=O)[C@@H](Cc1cn(C)c2ccccc12)NC(=O)[C@@H](N)[C@@H](C)CC.Cl                  1
1  CCOC(=O)[C@@H](Cc1cn(C)c2ccccc12)NC(=O)[C@@H](N)CC(C)C.Cl                  1
2  Cl.Cn1cc(C[C@@H](NC(=O)[C@@H](N)Cc2c[nH]c3ccccc23)C(=O)O)c2ccccc21                  0
3  Cl.Cn1cc(C[C@@H](NC(=O)[C@@H](N)CCCCN)C(=O)O)c2ccccc21                  0
4  Cl.Cn1cc(C[C@@H](N)C(=O)OCC2CCNCC2)c2ccccc21                  1
5  CC(C)C[C@H](N)C(=O)N[C@H](Cc1cn(C)c2ccccc12)C(=O)O.Cl                  0

Exercise: Regarding Cl.Cn1cc(C[C@@H](NC(=O)[C@@H](N)Cc2ccccc2)C(=O)O)c2ccccc21 , kindly confirm whether its remaining at 6 h is beneath 80%.
Key: 0

Exercise: Follow-up entry: CCOC(=O)[C@H](N)Cc1cn(C)c2ccccc12.Cl
Key: 0

----------
Test: Cmax in female cynomolgus monkey at 15 mg/kg, iv measured on day 1
Format: ADME, organism-based, Macaca fascicularis
Parameters: route intravenous, dose 15 mg/kg
Conditions: in vivo
Here the recorded Cmax is given for each entry.
Expressed in µM, but write only the number.

                             smiles  parameter_measured  units_of_measure  result_number
0  Cn1cc(C[C@@H](N)C(=O)O)c2ccccc21                Cmax                µM           43.1

In the following, a different compound is considered.
Exercise: Given the compound CCOC(=O)[C@@H](Cc1cn(C)c2ccccc12)NC(=O)[C@@H](N)CC(C)C.Cl , what is its reported Cmax?
Key: 0.135

----------
Test: Change in normalised Cmax in rat at 10 mg/kg, po measured upto 72 hrs by LC-MS/MS analysis
Format: ADME, organism-based
Conditions: in vivo
Here the recorded Activity is given for each entry.

A selection of reference data follows.
>>> df
                                   molecule  result
0  Cl.Cn1cc(C[C@@H](NC(=O)[C@@H](N)CCC(N)=O)C(=O)O)c2ccccc21    -51%
1  CC(C)C(NC(=O)[C@H](N)Cc1cn(C)c2ccccc12)C(=O)O.Cl (single isomer, unassigned)    -91%
2  C[C@H](N)C(=O)N[C@H](Cc1cn(C)c2ccccc12)C(=O)O.Cl    -22%
3  Cl.Cn1cc(C[C@@H](NC(=O)[C@@H](N)CCC(=O)O)C(=O)O)c2ccccc21      2%
4  CC(C)[C@H](N)C(=O)N[C@H](Cc1cn(C)c2ccccc12)C(=O)O.Cl    -18%

Exercise: Given the molecule Cl.Cn1cc(C[C@@H](N)C(=O)N[C@H](Cc2cn(C)c3ccccc23)C(=O)O)c2ccccc21 , what is its reported Activity?
Key: -83%

----------
Test: Cmax in female cynomolgus monkey at 75 mg/kg, po measured on day 1
Assay type: ADME, organism-based, Macaca fascicularis
Design: route oral, dose 75 mg/kg
Conditions: in vivo
Here the recorded Cmax is given for each entry.
State the result as a value with its unit after it.

>>> print(df.to_string())
                             smiles  result
0  Cn1cc(C[C@@H](N)C(=O)O)c2ccccc21   55 µM

Exercise: Given the compound CCOC(=O)[C@@H](Cc1cn(C)c2ccccc12)NC(=O)[C@@H](N)CC(C)C.Cl , what is its reported Cmax?
Key: 0.00846 µM

----------
Test: AUC (0 to infinity) in human up to 1200 mg administered bid
Assay type: ADME
Set-up: time infinity, dose <=1200
Parameter measured: AUC(0-inf) (µM·h)
Expressed in µM·h, but write only the number.

Exercise: Given the compound Cn1cc(C[C@@H](N)C(=O)O)c2ccccc21 , what is its reported AUC(0-inf)?
Key: 114

----------
Test: Cmax in po BID dosed rat measured on day 28
Type: ADME, organism-based
Parameters: route oral, dose 180 mg/kg
Conditions: in vivo, 180 mg/kg
Parameter measured: Cmax (µM)
Expressed in µM, but write only the number.

Exercise: Given the compound CCOC(=O)[C@@H](Cc1cn(C)c2ccccc12)NC(=O)[C@@H](N)CC(C)C.Cl , what is its reported Cmax?
Key: 110

----------
Test: Oral bioavailability in male cynomolgus monkey at 75 mg/kg
Assay type: ADME, organism-based, Macaca fascicularis
Conditions: in vivo
Parameter measured: bioavailability

Exercise: Given the compound CCOC(=O)[C@@H](Cc1cn(C)c2ccccc12)NC(=O)[C@@H](N)CC(C)C.Cl , what is its reported bioavailability?
Key: 61.8%

----------
Test: Volume of distribution in male cynomolgus monkey at 15 mg/kg, iv measured on day 1
Assay type: ADME, organism-based, Macaca fascicularis
Conditions: in vivo
Parameter measured: Vd
State the result as a value with its unit after it.

Exercise: Given the compound CCOC(=O)[C@@H](Cc1cn(C)c2ccccc12)NC(=O)[C@@H](N)CC(C)C.Cl , what is its reported Vd?
Key: 309 L/kg

----------
Test: Cmax in male cynomolgus monkey at 75 mg/kg, po BID measured on day 8
Assay type: ADME, organism-based, Macaca fascicularis
Design: route oral, dose 75 mg/kg
Conditions: in vivo
Parameter measured: Cmax (µM)
Expressed in µM, but write only the number.

>>> df
                                   compound  parameter_measured  result_number
0  CCOC(=O)[C@@H](Cc1cn(C)c2ccccc12)NC(=O)[C@@H](N)CC(C)C.Cl                Cmax        0.00774

Exercise: Given the compound Cn1cc(C[C@@H](N)C(=O)O)c2ccccc21 [INDOXIMOD] , what is its reported Cmax?
Key: 47.3

----------
Test: Half life in female cynomolgus monkey at 150 mg/kg, po measured on day 8
Assay type: ADME, organism-based, Macaca fascicularis
Conditions: in vivo
Parameter measured: half-life (min)
Expressed in min, but write only the number.

>>> print(df.to_string())
                             smiles  result_number
0  Cn1cc(C[C@@H](N)C(=O)O)c2ccccc21            162

Exercise: Given the compound CCOC(=O)[C@@H](Cc1cn(C)c2ccccc12)NC(=O)[C@@H](N)CC(C)C.Cl , what is its reported half-life?
Key: 180

----------
Test: Cmax in human up to 1200 mg administered bid
Assay type: ADME
Design: dose <=1200
Parameter measured: Cmax
State the result as a value with its unit after it.

Exercise: Given the compound Cn1cc(C[C@@H](N)C(=O)O)c2ccccc21 , what is its reported Cmax?
Key: 13.7 µM

----------
Test: Cmax in male cynomolgus monkey at 75 mg/kg, po measured on day 1
Format: ADME, organism-based, Macaca fascicularis
Parameters: route oral, dose 75 mg/kg
Conditions: in vivo
Parameter measured: Cmax
State the result as a value with its unit after it.

Exercise: Given the molecule Cn1cc(C[C@@H](N)C(=O)O)c2ccccc21 [INDOXIMOD] , what is its reported Cmax?
Key: 74.4 µM

----------
Test: Cmax in female cynomolgus monkey at 225 mg/kg, po measured on day 1
Assay type: ADME, organism-based, Macaca fascicularis
Design: route oral, dose 225 mg/kg
Conditions: in vivo
Parameter measured: Cmax

Exercise: Given the compound Cn1cc(C[C@@H](N)C(=O)O)c2ccccc21 [INDOXIMOD] , what is its reported Cmax?
Key: 68.5 µM
